- System: Acinetobacter baumannii
- METHOD_NOTES: Antimicrobial activity against Acinetobacter baumannii isolate A expressing beta-lactamase OXA-164 isolated from tracheal secretion of patient by Etest
Let's look at some molecules and their measured MIC.
OBSERVATION_TYPE: MIC (mg/L)

molecule=NC[C@H]1O[C@H](O[C@H]2[C@H](O)[C@@H](O[C@H]3O[C@H](CO)[C@@H](O)[C@H](N)[C@H]3O)[C@H](N)C[C@@H]2N)[C@H](N)C[C@@H]1O observation_type=MIC data_value=2
molecule=CN(C)c1cc(NC(=O)CNC(C)(C)C)c(O)c2c1C[C@H]1C[C@H]3[C@H](N(C)C)C(O)=C(C(N)=O)C(=O)[C@@]3(O)C(O)=C1C2=O observation_type=MIC data_value=4
molecule=C[C@@H](O)[C@H]1C(=O)N2C(C(=O)O)=C(S[C@@H]3CN[C@H](C(=O)N(C)C)C3)[C@H](C)[C@H]12 observation_type=MIC data_value=32
molecule=C[C@H]1COc2c(N3CCN(C)CC3)c(F)cc3c(=O)c(C(=O)O)cn1c23.C[C@H]1COc2c(N3CCN(C)CC3)c(F)cc3c(=O)c(C(=O)O)cn1c23.O observation_type=MIC data_value=8
molecule="C[C@@H](O)[C@H]1C(=O)N2C(C(=O)O)=C(SCCNC=N)C[C@H]12 [IMIPENEM ANHYDROUS]" observation_type=MIC data_value=32
